Reference source for all entries: PubChem BioAssay

assay: reversal of MRP1-mediated doxorubicin resistance, pilot screen, H69AR cells, doxorubicin co-treatment (AID 601); conditions: H69AR cells + 2 uM doxorubicin, CellTiter-Glo, 72 h; measured here: viability with 2 uM doxorubicin; at 10 µM; stronger effect = lower value
viability values, listed per item

>  <compound>
CC(C)(C)C(=O)Cn1c(=N)n(Cc2ccccc2)c2ccccc21

>  <viability [%]>
77.1

$$$$
>  <compound>
Cc1oc2c(CN3CCOCC3)c(O)ccc2c(=O)c1-c1ccc(Br)cc1

>  <viability [%]>
86

$$$$
>  <compound>
CCOC(=O)N1CCN(S(=O)(=O)c2cc(Cl)ccc2Cl)CC1

>  <viability [%]>
83

$$$$
>  <compound>
C[C@]12CCC(=O)C=C1CC[C@@H]1[C@@H]2CC[C@@]2(C)[C@H]1CC[C@]2(O)C(=O)CO

>  <viability [%]>
99.4

$$$$
>  <compound>
Cc1csc2nc3ccccc3c(=O)n12

>  <viability [%]>
93.2

$$$$
>  <compound>
CCCNS(=O)(=O)c1ccc(OCC(=O)NCc2ccc3c(c2)OCO3)cc1

>  <viability [%]>
89.1

$$$$
>  <compound>
CCCNCC(O)COc1ccccc1C(=O)CCc1ccccc1 (stereo not given)

>  <viability [%]>
84.8

$$$$
>  <compound>
C[C@@H]1C[C@H]2[C@@H]3C[C@H](F)C4=CC(=O)C=C[C@]4(C)[C@@]3(F)[C@@H](O)C[C@]2(C)[C@@]1(O)C(=O)CO

>  <viability [%]>
96.5

$$$$
>  <compound>
COCCCNC(=O)C(Cc1ccccc1)NS(=O)(=O)c1ccc2c(c1)c(=O)n(C)c(=O)n2C (stereo not given)

>  <viability [%]>
85.9

$$$$
>  <compound>
COc1ccc(C)cc1NC(=O)COCC(=O)O

>  <viability [%]>
95.2

$$$$
